Tested on: HEK293 cells
Type: cell-based, human
Conditions: circular RNA encoding Gluc with the listed IRES (UTR truncated to 675 nt) transfected into HEK293 cells; supernatant after 24 hours
MEASURE_NAME: Expression (luminescence from secreted Gluc protein)
Please reply with the value in numeric form only.

Which Expression (luminescence from secreted Gluc protein) is reported for this molecule? Porcine reproductive and respiratory syndrome virus 2 (nucleic acid, lipid formulation; source: /note="Description of Unknown: Porcine reproductive and respiratory syndrome virus 2 sequence") DNA: ATGACGTATAGGTGTTGGCTCTATGCCTTGGCATTTGTATTGTCAGGAGCTGTGACCATTGGCACAGCCCAAAACTTGCTGCACAGAAACACCCTTCTGTGATAGCCTCCTTCAGGGGAGCTTAGGGTTTGTCCCTAGCACCTTGCTTCCGGAGTTGCACTGCTTTACGGTCTCTCCACCCCTTTAACC
1.29E+05
